TEST TARGET: recombinant Mcl-1 (residues 172-327) (Homo sapiens (Human), UniProt Q07820)
Sequence (Q07820 172-327): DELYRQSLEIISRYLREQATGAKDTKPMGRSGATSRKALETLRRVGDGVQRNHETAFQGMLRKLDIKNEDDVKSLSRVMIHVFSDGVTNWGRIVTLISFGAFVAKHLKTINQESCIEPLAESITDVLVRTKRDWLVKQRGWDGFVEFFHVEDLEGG
PROTOCOL TEXT: Bak peptide fluorescence polarization anisotropy competition assay, Mcl-1
Format: binding
ASSAY CONTEXT: read-out: Ki for inhibition of Mcl-1
Recorded Ki by entry

These recorded examples may help you get a feel for the data.
1) Cc1cc(OCCCc2c(C(=O)NS(=O)(=O)CCNC(=O)C34CC5CC(CC(C5)C3)C4)[nH]c3ccccc23)cc(C)c1Cl : 101 to 299 nM
2) Cc1cc(OCCCc2c(C(=O)NS(=O)(=O)C3CCN(C(=O)c4cc(-c5ccccc5O)n[nH]4)CC3)[nH]c3cc(Cl)ccc23)cc(C)c1Cl : 301 to 500 nM
3) Cc1cc(OCCCc2c(C(=O)NS(=O)(=O)c3ccc(Oc4ccccc4)cc3)[nH]c3ccccc23)cc(C)c1Cl : 301 to 500 nM
4) Cc1cc(OCCCc2c(C(=O)NS(=O)(=O)CC3CCN(C(=O)OCc4ccccc4)CC3)[nH]c3cc(Cl)ccc23)cc(C)c1Cl : 301 to 500 nM
5) Cc1cc(OCCCc2c(C(=O)NS(=O)(=O)CCNC(=O)c3cccc(Oc4ccccc4)c3)[nH]c3ccccc23)cc(C)c1Cl : 101 to 299 nM
6) Cc1cc(OCCCc2c(C(=O)NS(=O)(=O)c3ccnc(Cl)c3)[nH]c3ccccc23)cc(C)c1Cl : 301 to 500 nM

Ask | Tell me its Ki given `CS(=O)(=O)NC(=O)c1[nH]c2ccccc2c1CCCOc1ccc(Cl)c2ccccc12` as the entry.
Reply | 501 to 999 nM

Ask | Indicate the recorded Ki value for this molecule: `CS(=O)(=O)NC(=O)c1[nH]c2ccccc2c1CCCOc1ccc(C(F)(F)F)cc1`
Reply | 10000 to 50000 nM

Ask | Input `Cc1occc1C(=O)NCCS(=O)(=O)NC(=O)c1[nH]c2cc(Cl)ccc2c1CCCOc1cccc2ccccc12` , output reported Ki.
Reply | 301 to 500 nM

Ask | Provide one value: measured Ki of `CS(=O)(=O)NC(=O)c1[nH]c2cc(Cl)ccc2c1CCCOc1ccccc1Br`
Reply | 1000 to 9990 nM

Ask | Find the measured Ki of `Cc1ccccc1S(=O)(=O)NC(=O)c1[nH]c2ccccc2c1CCCOc1cc(C)c(Cl)c(C)c1` and report it.
Reply | 101 to 299 nM

Ask | For `Cc1cc(OCCCc2c(C(=O)NS(=O)(=O)C3CCN(C(=O)c4cccc(Oc5ccccc5)c4)CC3)[nH]c3cc(Cl)ccc23)cc(C)c1Cl` , write its Ki.
Reply | 301 to 500 nM
